- System: dengue virus type 3
- Test: Antiviral activity against Fluc-tagged DENV3 infected in human HuH7 cells after 3 days by luciferase reporter gene assay
- Assay type: functional, organism-based
- Experimental Parameters: Huh-7, 72 h
Experimental Readout: pIC50
Value format note: pIC50 is -log10 of concentration (mol/L); just state the number.

pIC50 recorded for this molecule, COc1ccc(-c2cc(-c3ccc4cc(F)ccc4n3)n(-c3ccc(S(N)(=O)=O)cc3)n2)cc1 , is 6.14

----------
- Test: Selectivity index, ratio of CC50 for human HuH7 cells to IC50 for Fluc-tagged DENV2 strain 16681 infected in human HuH7 cells
- Assay type: toxicity, cell-based
- Experimental Parameters: read-out: Ratio CC50/IC50
Hi there, I'd appreciate the recorded selectivity ratio for every entry that follows.

Entry COc1ccc(-c2cc(-c3ccc4cc(F)ccc4n3)n(-c3ccc(S(N)(=O)=O)cc3)n2)cc1 , selectivity ratio reported as > 247

Per the records, this compound ( COc1ccc(-c2cc(-c3ccc4cc(F)ccc4n3)n(-c3ccc(F)cc3)n2)cc1 ) has selectivity ratio equal to > 147

Data point: COc1ccc(-c2cc(-c3ccc4cc(F)ccc4n3)n(-c3ccc(OC)cc3)n2)cc1 ; selectivity ratio = > 183

Just so you know, measured selectivity ratio for NC(=O)c1ncn([C@@H]2O[C@H](CO)[C@@H](O)[C@H]2O)n1 came out at 4.47

----------
- Test: Cytotoxicity against human HuH7 cells assessed as cell viability at 200 uM after 3 days by XTT method relative to control
- Assay type: cell-based, Huh-7
- Experimental Parameters: read-out: Activity
Experimental Readout: viability at 72 h, 200 µM (%)
// note: answer is a bare numeric in %

Entry COc1ccc(-n2nc(-c3ccccc3)cc2-c2ccc3cc(F)ccc3n2)cc1 — recorded viability at 72 h, 200 µM = 97.3

# viability at 72 h, 200 µM of COc1ccc(-c2cc(-c3ccc4cc(F)ccc4n3)n(-c3ccc(S(N)(=O)=O)cc3)n2)cc1 = 89.5

Kindly note the recorded viability at 72 h, 200 µM for Fc1ccc2nc(-c3cc(-c4ccccc4)nn3-c3ccccc3)ccc2c1 , which is 98.3

In plain terms, NC(=O)c1ncn([C@@H]2O[C@H](CO)[C@@H](O)[C@H]2O)n1 [RIBAVIRIN] has a documented viability at 72 h, 200 µM of 26.8

// viability at 72 h, 200 µM lookup, compound = Fc1ccc(-c2cc(-c3ccc4cc(F)ccc4n3)n(-c3ccc(F)cc3)n2)cc1 , result: 86.5

# viability at 72 h, 200 µM (compound: COc1ccc(-c2cc(-c3ccc4cc(F)ccc4n3)n(-c3ccc(F)cc3)n2)cc1 ) is 95.4
